The reported measurements were obtained from PubChem BioAssay AID434987.

# Test system: M. tuberculosis H37Rv growth inhibition with meropenem
# EXPERIMENT NOTES: dose response, H37Rv, with and without meropenem (AID 434987);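 further: growth over 7 days at 37 °C before Alamar Blue read on day 9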
# RECORDED CONDITIONS: measured here: IC90 with meropenem
READOUT: IC90

Go through the list and state IC90 for each entry.
1. NC(=O)CC(NC(=O)Cc1ccc(Br)cc1)c1ccc(NC2CCCCCC2)c([N+](=O)[O-])c1 (stereo not given)
2. O=C(Nc1ccc(OC(=O)c2ccccc2)c(-c2nc3ccccc3s2)c1)c1ccccc1
3. Nc1c(C(=O)N2CCCC2)sc2nc3c(cc12)CCCCCC3
4. O=C(Nc1ccc([N+](=O)[O-])cc1)c1cc2ccccc2nc1Cl
5. COCc1cc(=O)n2[nH]cc(-c3ccccc3)c2n1
6. NC(=S)N/N=C/c1cccc(/C=N/NC(N)=S)c1
7. COC(=O)c1cc(C)[nH]c2c(C)cc3nc4ccccc4c3c12
8. CC(=O)Nc1nonc1-c1nc2ccccc2n1CCC(C)C

1. > 100 µM
2. > 100 µM
3. > 100 µM
4. > 100 µM
5. 15.5 µM
6. > 100 µM
7. > 100 µM
8. > 100 µM

Here are 4 compounds. What values of IC90 were reported for them?
1. CCCCNC(=O)c1onc(CSc2ccc(OC)cc2)c1C(=O)O
2. CN1c2ccccc2C(=O)NC1c1ccc([N+](=O)[O-])s1 (stereo not given)
3. CCOc1cc(/C=N\NC(=O)c2ccc(NC(=O)C(C)(C)C)cc2)ccc1OC(=O)c1ccc(C)cc1
4. COc1ccc(C2c3c(C)nn(-c4ccccc4)c3NC(=O)N2c2ccccc2)cc1 (stereo not given)

["27.2 µM", "33.3 µM", "> 100 µM", "> 100 µM"]

Go through the list and state IC90 for each entry.
1. Cc1ccc(C)c(NC(=O)c2cc(-c3cccnc3)nc3ccccc23)c1
2. N#Cc1c(C(F)(F)F)cc(-c2ccccc2)nc1SCC(=O)Nc1sc2c(c1C#N)CCC2
3. COc1ccc(OC)c(NC(=O)CSC2=C(C#N)C(c3ccco3)C3=C(CCCC3=O)N2)c1 (stereo not given)
4. COc1cc(C(=O)NNC(=O)c2cc(-c3ccccc3)n[nH]2)cc(OC)c1C

["> 100 µM", "> 100 µM", "> 100 µM", "> 50 µM"]

Your task in this section: give IC90 for each listed record.
1. Cc1cccc(NC(=O)c2cc3ccccc3c(=O)o2)n1
2. CN(C)S(=O)(=O)Oc1ccsc1C(=O)Nc1ccc(C(F)(F)F)cc1

> 100 µM
> 100 µM

Here are 5 compounds. What values of IC90 were reported for them?
1. CC(/C=N/NC(=O)c1cc(-c2cccs2)[nH]n1)=C\c1ccccc1
2. COc1ccc(-c2csc(-c3cccs3)n2)c(OC)c1
3. CC(=O)c1ccccc1OCCOc1ncnc2sccc12
4. Cc1cccc(OCc2nc(-c3ccccn3)n[nH]2)c1
5. CN(C)C1=C(Cl)C(=O)N(c2ccc(Cl)c(Cl)c2)C1=O

1. > 100 µM
2. > 100 µM
3. > 100 µM
4. 7.37 µM
5. 14.9 µM

Provide IC90 for all items below, preserving their order.
1. Cc1cc(F)ccc1NCC(=O)Nc1ccc(Br)cc1C
2. COc1cc(NC(=S)NC(=O)c2cccs2)ccc1NC(=O)C(C)C

1: > 100 µM; 2: > 100 µM
